Give ΔTm at 10 µM for every item shown.
biological target: ZmDRIK1-K217-P492 (Zea mays, UniProt C0P4K9); construct: kinase domain, K217-P492; test: biochemical; conditions: read-out: dTm B, sheet ZmDRIK1-K217-P492;; DSF, Boltzmann fit, 0.1% DMSO
Give just the numeric value; °C need not be written.

Ask | For Cn1cc(C2=C(c3ccc(Cl)cc3Cl)C(=O)NC2=O)c2ccccc21 [SB216763] , what is its reported ΔTm at 10 µM?
Reply | -1.29

Ask | For Cn1cnc2c(F)c(Nc3ccc(Br)cc3F)c(C(=O)NOCCO)cc21 [MEK162 (ARRY-162)] , what is its reported ΔTm at 10 µM?
Reply | -1.3

Ask | For N#CCNC(=O)c1ccc(-c2ccnc(Nc3ccc(N4CCOCC4)cc3)n2)cc1 [CYT387] , what is its reported ΔTm at 10 µM?
Reply | -0.574

Ask | For COc1ccc2c(c1)c(C1=C(c3c[nH]c4ccccc34)C(=O)NC1=O)cn2CCCN(C)C [Go 6983] , what is its reported ΔTm at 10 µM?
Reply | -1.22

* * *

Target: ZmDRIK1-K217-P492 (Zea mays, UniProt C0P4K9)
Construct: kinase domain, K217-P492
Sequence (C0P4K9 1-514): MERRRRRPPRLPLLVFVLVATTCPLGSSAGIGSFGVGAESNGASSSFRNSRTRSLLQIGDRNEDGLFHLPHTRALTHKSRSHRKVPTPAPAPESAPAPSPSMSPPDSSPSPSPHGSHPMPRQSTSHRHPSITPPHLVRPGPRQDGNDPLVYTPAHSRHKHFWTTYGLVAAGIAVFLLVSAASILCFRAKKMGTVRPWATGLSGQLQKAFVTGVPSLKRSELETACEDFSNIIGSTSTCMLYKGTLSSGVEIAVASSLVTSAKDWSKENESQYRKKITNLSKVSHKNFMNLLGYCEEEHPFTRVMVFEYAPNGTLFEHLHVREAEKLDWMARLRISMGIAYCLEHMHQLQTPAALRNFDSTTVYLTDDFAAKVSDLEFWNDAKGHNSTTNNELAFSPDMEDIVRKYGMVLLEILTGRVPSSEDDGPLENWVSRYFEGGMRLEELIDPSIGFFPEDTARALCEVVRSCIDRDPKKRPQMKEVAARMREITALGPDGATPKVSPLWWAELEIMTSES
Assay: biochemical
Details: read-out: dTm B, sheet ZmDRIK1-K217-P492;; DSF, Boltzmann fit, 0.1% DMSO
Where a name gives a salt, the structure may show the parent alone.
Hi! Just check whether ΔTm at 10 µM is below -1 °C. Below gives met, equal or above gives not met.

Ask | ΔTm at 10 µM under -1 °C? Item: CC(C)(C#N)c1ccc(N2C(=O)OCc3cnc4ccc(-c5cnc6ccccc6c5)cc4c32)cc1
Reply | met

Ask | ΔTm at 10 µM under -1 °C? Item: Cc1c(CN2CCN(C(=O)[C@H](C)O)CC2)sc2c(N3CCOCC3)nc(-c3cnc(N)nc3)nc12 [GDC-0980 (RG7422)]
Reply | met

Ask | ΔTm at 10 µM under -1 °C? Item: Cn1c(Nc2ccc(C(F)(F)F)cc2)nc2cc(Oc3ccnc(-c4ncc(C(F)(F)F)[nH]4)c3)ccc21
Reply | not met

Ask | ΔTm at 10 µM under -1 °C? Item: Cc1cc(F)c(Nc2ncnc3cc(OCc4ccccc4)ccc23)cc1O [ZM 323881 HCl]
Reply | not met

Ask | ΔTm at 10 µM under -1 °C? Item: O=c1c(O)c(-c2ccc(O)c(O)c2)oc2cc(O)cc(O)c12
Reply | met

Ask | ΔTm at 10 µM under -1 °C? Item: Clc1ccc(C2(c3ccc(-c4cn[nH]c4)cc3)CCNCC2)cc1
Reply | not met

Ask | ΔTm at 10 µM under -1 °C? Item: O=C(NOCC(O)CO)c1cc(Br)c(F)c(F)c1Nc1ccc(I)cc1F (centres unmarked)
Reply | met

Ask | ΔTm at 10 µM under -1 °C? Item: C=CC(=O)Nc1cccc(Sc2nc(Nc3ccc(N4CCN(C)CC4)cc3)ncc2Cl)c1
Reply | not met

Ask | ΔTm at 10 µM under -1 °C? Item: C[C@H](NC(=O)/C(C#N)=C/c1cccc(Br)n1)c1ccccc1
Reply | met

Ask | ΔTm at 10 µM under -1 °C? Item: O=C(Nc1cc(C(F)(F)F)cc(C(F)(F)F)c1)c1cc(Cl)ccc1O
Reply | not met

Ask | ΔTm at 10 µM under -1 °C? Item: COC(=O)Nc1ccc(-c2nc(N3CCOCC3)c3cnn(C4CCN(C(=O)OC)CC4)c3n2)cc1
Reply | met

Ask | ΔTm at 10 µM under -1 °C? Item: COc1cc(Nc2ncc3c(n2)-c2ccc(Cl)cc2C(c2c(F)cccc2OC)=NC3)ccc1C(=O)O
Reply | met

Ask | ΔTm at 10 µM under -1 °C? Item: O=C(Nc1nc2cccc(-c3ccc(CN4CCS(=O)(=O)CC4)cc3)n2n1)C1CC1
Reply | met

Ask | ΔTm at 10 µM under -1 °C? Item: CCc1cccc(CC)c1NC(=O)N1Cc2[nH]nc(NC(=O)c3ccc(N4CCN(C)CC4)cc3)c2C1
Reply | not met

Ask | ΔTm at 10 µM under -1 °C? Item: O=C(NCc1ccccc1)c1csc(Nc2ccncn2)n1
Reply | not met

Ask | ΔTm at 10 µM under -1 °C? Item: COc1cc2c(Nc3ccc(NC(=O)c4ccccc4)cc3)ncnc2cc1OCCCN1CCOCC1
Reply | not met

// provenance: paper PMC7158045
